The following compounds are shown together with reported change in vivo at 100 mg/kg values.
- Tested on: serum lipid level
- method: Standard test on a male rat with normal serum lipid level (hypolipidemic action, 8 peroral administrations)
- Type: in vivo
- condition.notes: Rattus norvegicus, po, 192 h; 100 mg/kg/day p.o., 8 administrations; value before the oblique stroke (anterior value = 100%); read-out: % change of Serum-triglycerides, after treatment vs starting value before treatment
All answers are understood in %, so give the number only.

Example cases with answers are listed next.
# compound, change in vivo at 100 mg/kg [%]
data = [
    ("Cn1c(C(O)(c2ccccc2)c2ccc(Cl)cc2Cl)nc2ccccc21 (stereo not shown)", -46),
    ("CCOC(=O)C(C)(C)Oc1ccc(Cl)cc1 [Clofibrate, reference compound]", -30),
    ("Cn1ccnc1C(O)(c1ccccc1)c1ccc(Cl)cc1Cl (stereo not shown)", -37),
]

# context switch: different compound, same change in vivo at 100 mg/kg
// CC(O)(c1ccc(OC(F)(F)C(F)Cl)cc1)c1nccn1Cc1ccccc1 (stereo not shown) : change in vivo at 100 mg/kg value = -56
